Task for the reader: assign each of the following binders its reported Bmax.
Target: T1, Cynomolgus monkey CLDN18 (cynomolgus monkey)
T1 construct: on transfected HEK293-6E cells; also called Cyno CLDN18; cyno CLDN18.2 ortholog
T1 chain: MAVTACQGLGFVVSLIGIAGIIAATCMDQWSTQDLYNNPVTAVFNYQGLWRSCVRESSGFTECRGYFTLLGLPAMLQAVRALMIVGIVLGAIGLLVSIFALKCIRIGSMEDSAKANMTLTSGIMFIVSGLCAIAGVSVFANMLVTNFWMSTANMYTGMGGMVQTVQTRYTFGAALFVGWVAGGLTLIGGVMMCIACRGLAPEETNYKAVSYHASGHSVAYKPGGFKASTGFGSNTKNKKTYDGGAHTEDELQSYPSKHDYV
Experiment: flow cytometry, HEK293-6E + cyno CLDN18, 4PL fit
One number for each entry.

Examples with answers:
v37407 (antibody, human IgG1, V domains shown, human IgG1-based monoclonal antibody; also called H4-L4) VH: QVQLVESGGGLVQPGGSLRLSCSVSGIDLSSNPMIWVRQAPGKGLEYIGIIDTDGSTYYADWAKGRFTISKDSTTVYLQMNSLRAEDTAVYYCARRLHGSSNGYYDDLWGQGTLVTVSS VL: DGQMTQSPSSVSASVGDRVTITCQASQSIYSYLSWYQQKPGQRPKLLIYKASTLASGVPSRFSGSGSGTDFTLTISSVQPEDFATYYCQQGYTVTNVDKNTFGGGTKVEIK: 1410
v37411 (antibody, human IgG1, V domains shown, human IgG1-based monoclonal antibody; also called H5-L4; anti-CLDN18.2 mAb) VH: QVQLVESGGGLVQPGGSLRLSCSVSGIDLSSNPMIWVRQAPGKGLQYIGIIDTDGSTYYADWAKGRFTISKDSTTVYLQINSPRAEDTAVYYCARRLHGSSNGYYDDLWGQGTLVTVSS VL: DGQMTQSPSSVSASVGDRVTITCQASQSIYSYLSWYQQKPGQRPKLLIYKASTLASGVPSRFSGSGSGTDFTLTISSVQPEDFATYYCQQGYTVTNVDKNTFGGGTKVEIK: 1730

Give Bmax for all binders that follow.
1. v37410 (antibody, human IgG1, V domains shown, human IgG1-based monoclonal antibody; also called H3-L4) VH: QVQLVESGGGLVQPGGSLRLSCSVSGIDLSSNPMIWVRQAPGKGLQYIGIIDTDGSTYYADWAKGRFTISKDSSKNTVYLQMNSLRAEDTAVYYCARRLHGSSNGYYDDLWGQGTLVTVSS VL: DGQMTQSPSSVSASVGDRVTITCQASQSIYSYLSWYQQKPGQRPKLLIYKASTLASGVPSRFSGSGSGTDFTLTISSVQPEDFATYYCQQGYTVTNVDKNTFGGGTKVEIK
2. v37409 (antibody, human IgG1, V domains shown, human IgG1-based monoclonal antibody; also called H2-L4) VH: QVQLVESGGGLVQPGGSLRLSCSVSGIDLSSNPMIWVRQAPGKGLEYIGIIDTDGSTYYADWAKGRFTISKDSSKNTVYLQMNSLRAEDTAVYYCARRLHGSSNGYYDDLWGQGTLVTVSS VL: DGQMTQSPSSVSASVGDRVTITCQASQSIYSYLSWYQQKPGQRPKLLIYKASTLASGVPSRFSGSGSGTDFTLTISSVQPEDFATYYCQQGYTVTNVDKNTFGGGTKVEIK
3. v37408 (antibody, human IgG1, V domains shown, human IgG1-based monoclonal antibody; also called H4-L2) VH: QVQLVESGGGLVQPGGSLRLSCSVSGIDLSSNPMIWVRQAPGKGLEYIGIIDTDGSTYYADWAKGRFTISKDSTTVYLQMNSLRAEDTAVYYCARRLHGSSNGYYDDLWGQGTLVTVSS VL: DGQMTQSPSSVSASVGDRVTITCQASQSIYSYLSWYQQKPGQRPKLLIYKASTLASGVPSRFSGSGSGTDFTLTISSVQPEDAATYYCQQGYTVTNVDKNTFGGGTKVEVK
4. v35777 (antibody, human IgG1, V domains shown, also called parental rabbit chimeric; rabbit-human chimeric IgG1/kappa anti-CLDN18.2) VH: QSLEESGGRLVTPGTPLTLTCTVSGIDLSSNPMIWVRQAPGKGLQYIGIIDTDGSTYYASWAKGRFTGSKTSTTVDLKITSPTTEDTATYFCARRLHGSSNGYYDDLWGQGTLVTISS VL: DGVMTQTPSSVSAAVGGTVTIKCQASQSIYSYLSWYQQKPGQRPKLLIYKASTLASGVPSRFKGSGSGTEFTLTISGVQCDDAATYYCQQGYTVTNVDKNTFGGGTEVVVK

Response:
1: 1500; 2: 1500; 3: 1520; 4: 1660
